- method: RBC/PL partitioning equilibrium in whole blood
- condition parameters: 1 μg/mL, sodium heparin whole blood, 6 selectivity lots, 2 hours
quantity kind: LC-MS/MS calculated KRBC/PL
Could you keep your reply to the number by itself?

COCCOc1ccc(/C=N/c2ccccc2/N=C/c2ccc(OCCOC)cc2O)c(O)c1.[Ga+3] | 0.42

Can you look up the measured LC-MS/MS calculated KRBC/PL of COCCOc1ccc(/C=N/c2ccccc2N=C(C)c2ccccc2O)c(O)c1.[Ga+3] for me?
0.33

Can you look up the measured LC-MS/MS calculated KRBC/PL of COCCOCCOc1ccc(C=Nc2ccccc2N=Cc2ccc(OCCOCCOC)cc2O)c(O)c1.[Ga+3] for me?
0.56

Can you look up the measured LC-MS/MS calculated KRBC/PL of Oc1ccccc1/C=N/c1ccccc1/N=C/c1ccccc1O.[Ga+3] for me?
0.45
